- MEASUREMENT DESCRIPTION: yeast display, Sf9 membrane polyspecificity reagent, FACS + sequencing; frameworks hold sequencing errors
PARAMETER: polyreactivity (PSR sort gate)

CONSTRUCT SEQUENCE	PARAMETER	ASSAY RESULT
QVQLVESGGGLVQAGGSLSLSCAASGRTFWLNSMGWYRQAPGKERELVATISSSSGSTTYADSVKGRFTISRDNAKNTVYLQMNSLKPEDTAVYYCAADWSDDVPGYDYWGQGTQVTVSS	polyreactivity (PSR sort gate)	low polyreactivity
QVQLVESGGGLVQAGGSLRLSCAASGRPFDSNAMGWYRQGPGKERELVAAISYGCGTTHYADSVKGRFTISRDNAKNTVYLQMNSLKPEDTAVYYCAADPELQWESVTIGEYDYWGQGTQVTVSS	polyreactivity (PSR sort gate)	low polyreactivity
QVQLEESGGGLVQAGGSLRLSCAASGITFVGNAMGWYRQAPGKERELVAGIRGNGGSTYYADSVKGRFTISRDNAKNTVYLQMHSMNPEDTAVYYCAAAAYYADFDYWGQGTQVTVSS	polyreactivity (PSR sort gate)	low polyreactivity

* * *

- MEASUREMENT DESCRIPTION: yeast display, Sf9 membrane polyspecificity reagent, FACS + sequencing; frameworks hold sequencing errors
PARAMETER: polyreactivity (PSR sort gate)

Guide cases for polyreactivity (PSR sort gate), answers given:
CONSTRUCT SEQUENCE	ASSAY RESULT
QVQLVESGGGLVQAGGSLRLSCAASGFTVPGYAMGWYRQAPGNERELVAAINSSGGRTYYADSVKGRFTISRDTAKITVYFQMTSLKPEDTAVYYCAATRWYIRARYNYWGQGTQVTVSS	high polyreactivity
QDQLVESGGGLVQAGGSLRLSCAASGSIFVYNTMGWYRPAPRKESDLVAAISSSGGSTYYADSVKGRYTISRDNAKNTVYLQMNSLKPEDTAVYYCAAVNGYQYPPNYYNGYDYWGQGTQVTVSS	low polyreactivity
QLQHVESGGGLVQAGGSLRLSCAASGRTFWYYAMGWYRQAPGTESELVAAISRGGGSTYYADSVKGSFTISRDTAKNTVYLQMNILKPEDTAVYYCAVASDYRGYYYWGQGTQVTVSS	high polyreactivity
QEQQQESGGGLVQAGGSLRLSCSSSGSIILFYTMGWYRHAPVKERECVAGITLGTTTYNADSVKGRFTISRDNVKISVYLQMNSLKPEDTAVDYCAVAVGHYTEFWYWGQGTQVTMSS	high polyreactivity
QVQLVESGGGLVQAGGSLRLSCAASGFIFYVYAMGWYRQAPGKERELVATITSGGSTNYADSVKGRFTISRDNAKNTVYLQMNSLKPEDTAVYYCAADGWQSQYEYDYWGQGTQVTVSS	low polyreactivity

Field: next sequence
Request: Look up polyreactivity (PSR sort gate) of QVQLVESGGGLVHAGGSLRLSCAASGLIFPRYDMGWYRQAPGKELELVAAITSGGGTYYADSVKGRITISRDNAKNTVYLQMNSLIPEDTAVYYCARDHYRHSRFFYRYVYWGQGTQVSVSS and report it.
Result: low polyreactivity

* * *

- MEASUREMENT DESCRIPTION: yeast display, Sf9 membrane polyspecificity reagent, FACS + sequencing; frameworks hold sequencing errors
PARAMETER: polyreactivity (PSR sort gate)

Some solved entries appear below for comparison.
CONSTRUCT SEQUENCE	ASSAY RESULT
QVQLVESWGGLVQAGGSLRLSCAASGRTFHSYAMGWYRQAPGKERELVAAITSSGGSTYYADSVKGRFTISRDNAKNTVYLQMNSLKPEDTAVYYCAAPYRYLSRGGEMGYWGQGTQVTVSS	high polyreactivity
QVQLVESGGGLVQAGGSLRLSCAASGFNFRANGMGWYRQAPGKERELVATITSGGTTNYADSVKGRFTISRDNAKNTVYLQMNSLKPEDTAVYYCDKRFGPAYFRLYDYWGQGTQVTVSS	low polyreactivity
QVQLVESGGGLVQAGGSLRLICAASGLTFTKYAMGWYRQAPGKERELVATITSGGSTNYADSVKGRFTISRDNAKNTVYLQMNSLKPEDTAVYYCNRDNYKWPYWEFDYWGQGTQVTVSS	high polyreactivity
QVQLVESGGGLVQAGGSLRLSCAASGSTLYRNAMGWYRQAPGKEREFVAAISWSGGSTYYADSVKGRFTISRDNAKNTVYLQMNSLKPEDTAVYYCNARGPTVYETHNYWGQGTQVTVSS	low polyreactivity
QVQLVESGGGLVQAGGSLRLSCAASGITFYGNAMGWYRQAPGKERELVAAITYSGTSTYYADSVKGRFTISRDNAKNTVYLQMNSLKPEDTAVYYCAADEWYLVDYWGQGTQVTVSS	low polyreactivity

Request: Respond only with polyreactivity (PSR sort gate) recorded for QVQLVESCGGLVQAGGRLRLICAASGRTFTYNAMGWYIQAPGQERELVAAINFSGVSTYYADSVKGRFTISRDNAKYTVYLQMNSLKPEDTAVYSCNTVGYHYESDYWGQGTQVTVSS
Result: high polyreactivity

Request: Supply measured polyreactivity (PSR sort gate) of QVQLVESGGGLVQAGGSLRLSCAASGSIFPKYAMGWDRQAPGKERELVATITWSGSSTYYADSVKGRFTISRDNAKNTVYLQMNSLKPEDTAVYYCAATGWSSFYYRFDYWGQGTQVTVSS in your reply.
Result: low polyreactivity

Request: Answer with the recorded polyreactivity (PSR sort gate) of QVQLVESGGGLVQAGGSLRLSCAASGRTFAAYAMGWYRQAPGKERELVAGITSSSVRTYYADSVKGRFTISRDNAKNTVYLQMNSLKPEDTAVYYCNARADGSSSRWRPYSKFYYWGQGTQVTVSS only.
Result: low polyreactivity

Request: Identify measured polyreactivity (PSR sort gate) corresponding to QVLLVESGGGLVQAGGSLRLSCAASGSTFSQYAMGWNRQAPGKERELVAAIDSGSNTKYADSVKGRFTISRDHAKNTVYLQMNSLKPEDTAVYYCAADDSYRSIGGDYWGQGTQVTVSS
Result: low polyreactivity

Request: Indicate the recorded polyreactivity (PSR sort gate) value for this sequence: QVQLVESGGGLVQAGGSLRLSCAASGRIFYYNTMGWYRQAPGKEREFVAAITGSGGITYYADSVKGRFTISRDNAKNTVYLQMNSLKPEDTAVYYCAARTRYSIYRYYYWGQGTQVTVSS
Result: high polyreactivity
